- Tested on: Enterococcus faecium ATCC 700221 (VRE)
- Procedure Text: Broth microdilution MIC, E. faecium ATCC 700221 (VRE)
- Type: cell-based
- Assay Setup: Enterococcus faecium; broth microdilution, 37° C., 20 hours; read-out: MIC E. faecium ATCC 700221 (VRE)
Observation Type: MIC (µg/mL)

Sample records with MIC:
Ask: What does the data say about its MIC? Entry: "O=c1[nH]c(NCc2ccc(Cl)c(Cl)c2)nc2cnn(CCOCCO)c12"
Result: 2

Ask: Now the compound "O=C(O)COCCOCCn1ncc2nc(NCc3ccc(Cl)c(Cl)c3)[nH]c(=O)c21"
Result: 64

Ask: Now the compound "NS(=O)(=O)CCn1ncc2nc(NCc3ccc(Cl)c(Cl)c3)[nH]c(=O)c21"
Result: 16

I: O=c1[nH]c(NCc2ccc(Cl)c(Cl)c2)nc2cnn(CC3CCC3)c12
II: Cc1cncc(C(=O)N2CCC(n3ncc4nc(NCc5ccc(Cl)c(Cl)c5)[nH]c(=O)c43)CC2)c1.Cl
III: Cl.NC(=O)C1CCN(CCn2ncc3nc(NCc4ccc(Cl)c(Cl)c4)[nH]c(=O)c32)CC1
IV: CC(C)OC(=O)CCCn1ncc2nc(NCc3ccc(Cl)c(Cl)c3)[nH]c(=O)c21
Ask: Ordering criterion: MIC; begin with the maximum. Respond with an ordered listing of the labels, as requested.
Result: III, IV, II, I

A: O=c1[nH]c(NCc2ccc(Cl)c(Cl)c2)nc2cnn(Cc3nccs3)c12
B: COCCn1cc2nc(NCc3ccc(Cl)c(Cl)c3)[nH]c(=O)c2n1
C: CN(CCn1ncc2nc(NCc3ccc(Cl)c(Cl)c3)[nH]c(=O)c21)C(=O)c1cnoc1
D: Cn1ncc2nc(NCc3ccc(F)c(F)c3)[nH]c(=O)c21
Ask: # rank by MIC, ascending (min first) Respond with an ordered listing of the labels, as requested.
Result: A, C, D, B

* * *

- Test system: Enterococcus faecalis ATCC 29212
- Procedure Text: Broth microdilution MIC, E. faecalis ATCC 29212
- Type: cell-based
- Assay Setup: ATCC29212, broth microdilution, 37° C., 20 hours, read-out: MIC E. faecalis ATCC 29212
Observation Type: MIC (µg/mL)

Ask: What does the data say about its MIC? Entry: CN(C)C(=O)C1CN(CCn2ncc3nc(NCc4ccc(Cl)c(Cl)c4)[nH]c(=O)c32)CCO1.Cl (centres unmarked)
Result: 8

I: CN(CCn1ncc2nc(NCc3ccc(Cl)c(Cl)c3)[nH]c(=O)c21)C(=O)c1cc(O)nnc1Cl
II: COCC(OCCn1ncc2nc(NCc3ccc(Cl)c(Cl)c3)[nH]c(=O)c21)c1cccnc1.Cl (centres unmarked)
Ask: Hi there! Just curious which has the higher MIC between I and II . // respond with label for picked entry
Result: I
(I: 32 µg/mL, II: 16 µg/mL)

I: O=c1[nH]c(NCc2ccc(Cl)c(Cl)c2)nc2cnn(CCCOC3CC(O)C3)c12 (centres unmarked)
II: Cl.O=c1[nH]c(NCc2ccc(Cl)c(Cl)c2)nc2cnn(Cc3cccnc3)c12
Ask: Hi there! Just curious which has the higher MIC between I and II . // respond with label for picked entry
Result: II

a: O=c1[nH]c(NCc2ccc(Cl)c(Cl)c2)nc2cnn(-c3ccncc3)c12
b: O=c1[nH]c(NCc2ccc(Cl)c(Cl)c2)nc2cnn(Cc3coc(CO)n3)c12
Ask: Hi there! Just curious which has the higher MIC between a and b . // respond with label for picked entry
Result: b
(b: 16 µg/mL, a: 4 µg/mL)

* * *

Form field: MIC (one value per entry).
- Test system: Staphylococcus aureus ATCC 29213 (MSSA)
- Procedure Text: Broth microdilution MIC, S. aureus ATCC 29213 (MSSA)
- Assay type: cell-based
- Assay Setup: 20 h, read-out: MIC S. aureus ATCC 29213 (MSSA)
Structures can show the parent of a compound that is named as a salt.
Reply with just the number (in µg/mL).

Sample records with MIC:
Ask: What does the data say about its MIC? Entry: O=c1[nH]c(NCc2ccc(Cl)c(Cl)c2)nc2cnn(CC3CCCN3c3ccccn3)c12 (stereo not shown) [Compound 182, dihydrochloride]
Result: 4

Ask: Now the compound O=c1[nH]c(NCc2ccc(Cl)c(Cl)c2)nc2cnn(C3CCN(c4ccncc4)CC3)c12 [Compound 162, dihydrochloride]
Result: 4

Ask: Now the compound O=c1[nH]c(NCc2ccc(Cl)c(Cl)c2)nc2cnn(C3CCN(c4cccnc4)CC3)c12 [Compound 163, dihydrochloride]
Result: 2

Ask: Now the compound COP(=O)(OC)OCCOCCn1ncc2nc(NCc3ccc(Cl)c(Cl)c3)[nH]c(=O)c21 [Compound 297]
Result: 16

Ask: Now the compound CN1CCC(n2ncc3nc(NCc4ccc(Cl)c(Cl)c4)[nH]c(=O)c32)C1 (stereo not shown) [Compound 243, TFA salt]
Result: 8

More entries:
Ask: What does the data say about its MIC? Entry: CC(C)(C)OC(=O)N1C[C@H](O)C[C@H]1C(=O)N1CCC(n2ncc3nc(NCc4ccc(Cl)c(Cl)c4)[nH]c(=O)c32)CC1 [Compound 275]
Result: 32

Ask: Now the compound O=c1[nH]c(NCc2ccc(Cl)c(Cl)c2)nc2cnn(C3CCNC3)c12 (stereo not shown) [Compound 216, TFA salt]
Result: 16

* * *

- System: Enterococcus faecium ATCC 700221 (VRE)
- Procedure Text: Broth microdilution MIC, E. faecium ATCC 700221 (VRE)
- Type: cell-based
- Parameters: unit: ug/mL
- Assay Setup: broth microdilution, 37° C., 20 hours
Where a name gives a salt, the structure may show the parent alone.
Observation Type: MIC E. faecium ATCC 700221 (VRE)

Sample records with MIC E. faecium ATCC 700221 (VRE):
Ask: Param readout= MIC E. faecium ATCC 700221 (VRE); system= Enterococcus faecium ATCC 700221 (VRE); entry= "Cl.O=c1[nH]c(NCc2ccc(Cl)c(Cl)c2)nc2cnn(Cc3cccnc3)c12" ; returns value.
Result: 2/2

Ask: Now the compound "O=c1[nH]c(NCc2ccc(Cl)c(Cl)c2)nc2cnn(CCOC3CCOCC3)c12"
Result: 4/2

Ask: Now the compound "Cl.O=c1[nH]c(NCc2ccc(Cl)c(Cl)c2)nc2cnn(CCOc3cccnc3)c12"
Result: 4/1

Ask: Now the compound O=c1[nH]c(NCc2ccc(Cl)c(Cl)c2)nc2cnn(C3CCN(c4ccncc4)CC3)c12 [Compound 162, dihydrochloride]
Result: 2/2

Ask: Now the compound Cl.Cl.O=c1[nH]c(NCc2ccc(Cl)c(Cl)c2)nc2cnn(C3CCN(c4ccncc4)C3)c12 (centres unmarked)
Result: 4/4

More entries:
Ask: Param readout= MIC E. faecium ATCC 700221 (VRE); system= Enterococcus faecium ATCC 700221 (VRE); entry= "Cl.O=c1[nH]c(NCc2ccc(Cl)c(Cl)c2)nc2cnn(Cc3cnccn3)c12" ; returns value.
Result: 2/2

Ask: Now the compound "Cl.O=c1[nH]c(NCc2ccc(Cl)c(Cl)c2)nc2cnn(CCN3C[C@@H]4C[C@H]3CO4)c12"
Result: 4/2

Ask: Now the compound "Cl.O=c1[nH]c(NCc2ccc(Cl)c(Cl)c2)nc2cnn(CCOCc3cccnc3)c12"
Result: 4/1

* * *

- Test system: Streptococcus pneumoniae ATCC 49619
- Procedure Text: Broth microdilution MIC, S. pneumoniae ATCC 49619
- Assay type: cell-based
- Assay Setup: ATCC49619, broth microdilution, 37° C., 20 hours, read-out: MIC S. pneumoniae ATCC 49619
Observation Type: MIC (µg/mL)

Sample records with MIC:
Ask: What does the data say about its MIC? Entry: "O=C(O)CCCn1ncc2nc(NCc3ccc(Cl)c(Cl)c3)[nH]c(=O)c21"
Result: 16

Ask: Now the molecule "Cc1ccncc1C(=O)N1CCC(n2ncc3nc(NCc4ccc(Cl)c(Cl)c4)[nH]c(=O)c32)CC1.Cl"
Result: 4

Ask: Now the molecule Cl.O=C(c1ccncc1)N1CCC(n2ncc3nc(NCc4ccc(Cl)c(Cl)c4)[nH]c(=O)c32)C1 (centres unmarked)
Result: 4

Ask: Now the molecule "Cl.O=C(c1ccncc1)N1CCC(n2ncc3nc(NCc4ccc(Cl)c(Cl)c4)[nH]c(=O)c32)CC1"
Result: 2

a: COCCOCCn1ncc2nc(NCc3ccc(Cl)c(Cl)c3)[nH]c(=O)c21
b: CN(C)C(CO)C(=O)N1CCC(n2ncc3nc(NCc4ccc(Cl)c(Cl)c4)[nH]c(=O)c32)CC1.Cl (centres unmarked)
Ask: Hi there! Just curious which has the higher MIC between a and b . // respond with label for picked entry
Result: b
(b: 4 µg/mL, a: 2 µg/mL)

1: CN(C)CCOCCn1ncc2nc(NCc3ccc(Cl)c(Cl)c3)[nH]c(=O)c21.Cl
2: Cn1nc(C2CCCO2)c2nc(NCc3ccc(Cl)c(Cl)c3)[nH]c(=O)c21 (centres unmarked)
3: CN1CC2CC1CN2CCn1ncc2nc(NCc3ccc(Cl)c(Cl)c3)[nH]c(=O)c21.Cl.Cl (centres unmarked)
4: CCOCCc1nn(C)c2c(=O)[nH]c(NCc3ccc(Cl)c(Cl)c3)nc12
Ask: Ordering criterion: MIC; begin with the maximum. Respond with an ordered listing of the labels, as requested.
Result: 2, 4, 3, 1
(2: 32 µg/mL, 4: 16 µg/mL, 3: 8 µg/mL, 1: 4 µg/mL)

P: Cn1ncc2nc(NCc3ccc(Cl)c(F)c3)[nH]c(=O)c21
Q: O=c1[nH]c(NCc2ccc(Cl)c(Cl)c2)nc2cnn(CC(O)CN3CCOCC3)c12 (centres unmarked)
R: O=C(O)CCn1ncc2nc(NCc3ccc(Cl)c(Cl)c3)[nH]c(=O)c21
Ask: Ordering criterion: MIC; begin with the maximum. Respond with an ordered listing of the labels, as requested.
Result: R, Q, P

1: Cl.Cl.O=c1[nH]c(NCc2ccc(Cl)c(Cl)c2)nc2cnn(C3CCN(Cc4ccccn4)CC3)c12
2: Cl.O=c1[nH]c(NCc2ccc(Cl)c(Cl)c2)nc2cnn(CC3CCNC3)c12 (centres unmarked)
Ask: Would you kindly point out which of 1 and 2 has the smaller MIC figure? // respond with label for picked entry
Result: 1
